Reported IC50 values follow for various substances
Tested on: PC3 prostate cancer cells
Where no end group is shown, it is not given here.
REPORTED ENDPOINT: IC50 (µM)

QLMLCVL [7MM, QLMLCVL] :: 13
DLVISFQLMLCVLDYFIK [7α, DLVISFQLMLCVLDYFIK] :: 9.6

====

Reported pIC50 values follow for various substances
Tested on: PANC-1 pancreatic cancer cells
Details: 48 h
pIC50: −log10 of the molar value. Where no end group is shown, it is not given here.
REPORTED ENDPOINT: pIC50

ISFQLMLCVLDYF [7M, ISFQLMLCVLDYF] :: 5.13
DLVISFQLMLCVLDYFIK [7α, DLVISFQLMLCVLDYFIK] :: 5.19
QLMLCVL [7MM, QLMLCVL] :: 5.00

====

Reported pIC50 values follow for various substances
Tested on: HMEC primary mammary epithelial normal cells
pIC50: −log10 of the molar value. Where no end group is shown, it is not given here.
REPORTED ENDPOINT: pIC50

DLVISFQLMLCVLDYFIK [7α, DLVISFQLMLCVLDYFIK] :: 3.94
QLMLCVL [7MM, QLMLCVL] :: 4.11

====

Reported IC50 values follow for various substances
Tested on: M059J glioma cancer cells
Conditions: 48 h
Where no end group is shown, it is not given here.
REPORTED ENDPOINT: IC50 (µM)

ISFQLMLCVLDYF [7M, ISFQLMLCVLDYF] :: 6.8
QLMLCVL [7MM, QLMLCVL] :: 7.7
DLVISFQLMLCVLDYFIK [7α, DLVISFQLMLCVLDYFIK] :: 7.1
